Tested on: rat orexin 1 receptor (Rattus norvegicus (Rat), UniProt P56718)
Sequence (P56718 whole entry): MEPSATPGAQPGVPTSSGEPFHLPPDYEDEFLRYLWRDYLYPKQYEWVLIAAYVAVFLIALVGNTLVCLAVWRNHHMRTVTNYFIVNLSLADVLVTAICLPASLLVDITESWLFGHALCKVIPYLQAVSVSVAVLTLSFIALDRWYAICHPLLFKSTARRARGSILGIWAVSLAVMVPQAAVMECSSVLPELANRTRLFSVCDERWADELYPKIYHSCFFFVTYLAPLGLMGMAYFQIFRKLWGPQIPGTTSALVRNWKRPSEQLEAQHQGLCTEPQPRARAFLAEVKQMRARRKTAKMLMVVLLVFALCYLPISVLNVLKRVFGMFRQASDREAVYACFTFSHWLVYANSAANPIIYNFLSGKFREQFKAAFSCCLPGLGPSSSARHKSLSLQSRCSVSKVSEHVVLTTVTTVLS
Measurement notes: Rat orexin 1 receptor radioligand binding (competitive binding, HEK293 membranes)
Condition set: rat orexin 1 receptor; Table 2, averages of 2-20 runs; read-out: rOX1 Ki
Parameter measured: Ki (µM)
Reply numerically in µM, unit not repeated.

Reported Ki ( Cc1coc(-c2ccc(C)nc2C(=O)N2[C@@H]3CC[C@H]2[C@H](COc2ncc(F)cn2)C3)n1 ) = 2.4

====

Tested on: human orexin 1 receptor (Homo sapiens (Human))
Sequence (O43613 whole entry): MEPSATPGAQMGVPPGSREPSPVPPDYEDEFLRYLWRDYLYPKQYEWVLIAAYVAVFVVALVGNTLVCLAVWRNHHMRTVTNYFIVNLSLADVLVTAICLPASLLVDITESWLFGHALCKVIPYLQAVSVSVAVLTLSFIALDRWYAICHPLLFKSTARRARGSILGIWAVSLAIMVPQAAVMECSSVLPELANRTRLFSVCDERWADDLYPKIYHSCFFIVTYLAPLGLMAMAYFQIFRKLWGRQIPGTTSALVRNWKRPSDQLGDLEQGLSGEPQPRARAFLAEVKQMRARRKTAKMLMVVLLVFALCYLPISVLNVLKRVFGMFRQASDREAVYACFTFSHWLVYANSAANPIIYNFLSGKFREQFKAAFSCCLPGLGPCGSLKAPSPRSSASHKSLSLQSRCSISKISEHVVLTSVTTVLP
Measurement notes: Human orexin 1 receptor radioligand binding (competitive binding, CHO membranes)
Condition set: Table 2, further testing; averages from 2-20 runs; read-out: hOX1 Ki
Parameter measured: pKi
# log scale: pKi equals minus log10 of the concentration in mol/L

These solved cases illustrate the format of a correct answer.
Smiles	Tested on	pKi
O=C(c1cccc(F)c1-n1nccn1)N1[C@@H]2CC[C@H]1[C@H](Nc1ncc(C(F)(F)F)cc1F)C2	human orexin 1 receptor (Homo sapiens (Human))	7.39
O=C(c1ccccc1-n1nccn1)N1[C@@H]2CC[C@H]1[C@H](Nc1ncc(C(F)(F)F)cc1F)C2	human orexin 1 receptor (Homo sapiens (Human))	7.48
Cc1ccc(C(=O)N2[C@@H]3CC[C@H]2[C@H](Nc2ncc(C(F)(F)F)cc2F)C3)c(-n2nccn2)n1	human orexin 1 receptor (Homo sapiens (Human))	6.65
O=C(c1ccccc1-c1ncccn1)N1[C@@H]2CC[C@H]1[C@H](Nc1ncc(C(F)(F)F)cc1F)C2	human orexin 1 receptor (Homo sapiens (Human))	7.62
Cc1cccc(C(=O)N2[C@@H]3CC[C@H]2[C@H](Nc2ncc(C(F)(F)F)cc2F)C3)c1-n1nccn1	human orexin 1 receptor (Homo sapiens (Human))	7.49
O=C(c1cccc(F)c1-c1ncco1)N1[C@@H]2CC[C@H]1[C@H](Nc1ncc(C(F)(F)F)cc1F)C2	human orexin 1 receptor (Homo sapiens (Human))	7.64

I looked up Cc1cnc(-n2nccn2)c(C(=O)N2[C@@H]3CC[C@H]2[C@H](Nc2ncc(C(F)(F)F)cc2F)C3)c1 and its pKi for human orexin 1 receptor (Homo sapiens (Human)) was 6.52

====

Tested on: rat orexin 1 receptor (Rattus norvegicus (Rat), UniProt P56718)
Measurement notes: Rat orexin 1 receptor radioligand binding (competitive binding, HEK293 membranes)
Condition set: rat orexin 1 receptor; Table 2, averages from between 2-20 runs; read-out: rOX1 Ki
Recorded pKi values for a group of compounds are listed next.
In simple prose, pKi is minus the logarithm base ten of a concentration in moles per litre.

Compound	Tested on	pKi
O=C(c1cccc(F)c1-n1nccn1)N1[C@@H]2CC[C@H]1[C@H](Nc1ncc(C(F)(F)F)cc1Cl)C2	rat orexin 1 receptor (Rattus norvegicus (Rat), UniProt P56718)	7.48
O=C(c1cccc(F)c1-c1ncccn1)N1[C@@H]2CC[C@H]1[C@H](Nc1nc(C(F)(F)F)cs1)C2	rat orexin 1 receptor (Rattus norvegicus (Rat), UniProt P56718)	6.34
O=C(c1cccc(F)c1-c1ncccn1)N1[C@@H]2CC[C@H]1[C@H](Nc1ccc(C(F)F)cn1)C2	rat orexin 1 receptor (Rattus norvegicus (Rat), UniProt P56718)	6.91
O=C(c1ccc(F)cc1-c1ncccn1)N1[C@@H]2CC[C@H]1[C@H](Nc1ncc(C(F)(F)F)cn1)C2	rat orexin 1 receptor (Rattus norvegicus (Rat), UniProt P56718)	6.80
Cc1noc(-c2cc(F)ccc2C(=O)N2[C@@H]3CC[C@H]2[C@H](Nc2cnc(C(F)(F)F)cn2)C3)n1	rat orexin 1 receptor (Rattus norvegicus (Rat), UniProt P56718)	6.90
O=C(c1ccccc1-c1ncccn1)N1[C@@H]2CC[C@H]1[C@H](Nc1ncc(C(F)(F)F)cc1Cl)C2	rat orexin 1 receptor (Rattus norvegicus (Rat), UniProt P56718)	7.70
Cc1cccc(C(=O)N2[C@@H]3CC[C@H]2[C@H](Nc2ccc(C#N)cn2)C3)c1-c1ncccn1	rat orexin 1 receptor (Rattus norvegicus (Rat), UniProt P56718)	6.30
Cc1cccc(C(=O)N2C3CCC2C(Oc2ccc(C(F)(F)F)cn2)C3)c1-n1nccn1 (racemic)	rat orexin 1 receptor (Rattus norvegicus (Rat), UniProt P56718)	7.04

The compound identified as O=C(c1cc(F)ccc1-n1nccn1)N1[C@@H]2CC[C@H]1[C@H](Nc1ccc(C(F)(F)F)cn1)C2 registered its pKi at 7.17

Record O=C(c1cccc(F)c1-c1ncccn1)N1[C@@H]2CC[C@H]1[C@H](Nc1nnc(C(F)(F)F)s1)C2 . Reported pKi: 6.07
